Origin of values: PubChem BioAssay (NCI)

# Tested on: A498 renal
# measurement.description: NCI tumour cell line growth inhibition, 48 h

compound | experimental.system | readout.unit | bound.sign | TGI
O=P([O-])(O)OP(=O)([O-])O.[NH-][C@@H]1CCCC[C@H]1[NH-].[Pt+4] | A498 renal | µM | > | 100
Cc1ccc(/C=C/C(=O)c2sc(-c3cccnc3)nc2C)cc1 | A498 renal | µM | > | 100
CCOC(=O)c1c(-c2ccc(O)c(OC)c2)c(C#N)c(=S)n(C2OC(COC(C)=O)C(OC(C)=O)C(OC(C)=O)C2OC(C)=O)c1-c1ccccc1 (stereo not given) | A498 renal | µM | > | 100
O=[N+]([O-])c1ccc(Nc2nc3ccccc3s2)cc1 | A498 renal | µM | = | 92
CCc1nc(N)nc(C(=O)NCCNC(=O)c2nc(N)nc(CC)c2C)c1C | A498 renal | µM | > | 100
O=C(Nc1ccc(F)cc1F)c1cc(Br)ccc1O | A498 renal | µM | = | 2.75
CC1=NN(C(=O)c2ccccc2O)C(=O)/C1=C/c1ccccc1O | A498 renal | µM | = | 0.124
COC(=O)C1[C@@H](C(=O)OC)C12C=Cc1ccccc1C=C2 (stereo not given in full) | A498 renal | µM | > | 100
CCCCc1ccc(-n2c3nc(=O)n(C)c(=O)c-3nc3ccccc32)cc1 | A498 renal | µM | = | 32.7
CC(=O)NC1C(O)C(O)C(CO)OC1n1ncc(=O)[nH]c1=O (stereo not given) | A498 renal | µM | > | 100
